# IC50 annotations
MEASURED TARGET: NRAS G12C (Homo sapiens, UniProt P01111+P62937, G12C)
Sequence (P01111 whole entry G12C): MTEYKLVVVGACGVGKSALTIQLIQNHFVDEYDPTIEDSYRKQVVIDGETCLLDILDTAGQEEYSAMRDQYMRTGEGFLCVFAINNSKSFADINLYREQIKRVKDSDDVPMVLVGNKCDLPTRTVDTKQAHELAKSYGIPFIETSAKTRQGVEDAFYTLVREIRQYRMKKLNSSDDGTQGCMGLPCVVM
Sequence (P62937 whole entry): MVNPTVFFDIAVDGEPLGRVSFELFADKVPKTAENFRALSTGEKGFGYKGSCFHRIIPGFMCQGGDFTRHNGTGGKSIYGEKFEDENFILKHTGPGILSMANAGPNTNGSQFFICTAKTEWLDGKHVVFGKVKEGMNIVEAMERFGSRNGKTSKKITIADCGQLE
TEST NAME: Ras-Raf disruption / FRET / MOA assay (BRAF RBD)
Assay type: biochemical
EXPERIMENTAL SETUP: NRAS G12C FRET data IC50, NRAS G12C

Incoming: Please report IC50 for the following compound: "CCn1c(-c2cccnc2[C@H](C)OC)c2c3cc(ccc31)-c1cc(O)cc(c1)C[C@H](NC(=O)[C@H](C(C)C)N(C)C(=O)CN(C)C(=O)[C@H]1N[C@H]1C1CCC1)C(=O)N1CCC[C@H](N1)C(=O)OCC(C)(C)C2"
Outgoing: 10 to 100 nM

Incoming: Please report IC50 for the following compound: "CCn1c(-c2cc(N3CCN(C)CC3)cnc2[C@H](C)OC)c2c3cc(ccc31)-c1cc(O)cc(c1)C[C@H](NC(=O)[C@H](C1CCCC1)N(C)C(=O)CN(C)C(=O)[C@H]1CN1)C(=O)N1CCC[C@H](N1)C(=O)OCC(C)(C)C2"
Outgoing: < 10 nM

Incoming: Please report IC50 for the following compound: "CCn1c(-c2cccnc2[C@H](C)OC)c2c3cc(ccc31)-c1cc(O)cc(c1)C[C@H](NC(=O)[C@H](C1CCCC1)N(C)C(=O)CN(C)C(=O)[C@@H]1N[C@@H]1C1(F)CC1)C(=O)N1CCC[C@H](N1)C(=O)OCC(C)(C)C2"
Outgoing: 10 to 100 nM

Incoming: Please report IC50 for the following compound: CCn1c(-c2cccnc2[C@H](C)OC)c2c3cc(ccc31)-c1cc(O)cc(c1)C[C@H](NC(=O)[C@H](C(C)C)N(C)C(=O)CN(C)C(=O)[C@@H]1CN1C(C)C)C(=O)N1CCC[C@H](N1)C(=O)OCC(C)(C)C2 (stereo partly shown)
Outgoing: < 10 nM
